Target: T1, recombinant human IL-23R/Fc chimera (R&D Systems) (human, UniProt Q5VWK5 24-355)
T1 construct: Bought; also called rhIL23RFc
T1 sequence (looked up): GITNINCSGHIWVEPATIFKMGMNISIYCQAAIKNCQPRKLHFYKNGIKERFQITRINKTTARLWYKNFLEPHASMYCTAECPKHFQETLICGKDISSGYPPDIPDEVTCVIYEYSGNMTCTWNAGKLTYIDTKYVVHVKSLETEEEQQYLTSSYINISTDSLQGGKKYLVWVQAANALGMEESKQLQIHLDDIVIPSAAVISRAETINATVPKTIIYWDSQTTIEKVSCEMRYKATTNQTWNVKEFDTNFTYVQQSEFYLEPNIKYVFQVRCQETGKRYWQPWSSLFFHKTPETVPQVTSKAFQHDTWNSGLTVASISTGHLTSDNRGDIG
Experiment: SPR
endpoint: koff (s⁻¹)
Give the number; s⁻¹ is assumed, so skip it.

Answered examples (2):
{"columns": ["binder", "koff / s⁻¹"],
 "data": [
  ["001-69.4G8 monomeric CTLD (designed binder, C-terminal tag not specified; not shown: C-terminal tag: 6xHis (pANA1), HA-His (pANA3) or HA-StrepII (pANA12)) ALQTVCLKGTKVHMKCFLAFTQTKTFHEASEDCISRGGTLSTPQTGSENDALYEYLRQSVGNEAEIWLGLNGSRRSGVWVDMTGARIAYKNWETEITAQPDGGFGVFGENCAVLSGAANGKWFDKRCRDQLPYICQFGIV", 0.00783],
  ["001-69.4E5 monomeric CTLD (designed binder, C-terminal tag not specified; not shown: Also the vector's N-terminal AGGGS after the pelB signal) ALQTVCLKGTKVHMKCFLAFTQTKTFHEASEDCISRGGTLSTPQTGSENDALYEYLRQSVGNEAEIWLGLNGNPSGSVWVDMTGARIAYKNWETEITAQPDGGYGVWGENCAVLSGAANGKWFDKRCRDQLPYICQFGIV", 0.0161]
]}

State, in one line, measured koff of 056-41.B5C ATRIMER complex (designed binder, non-covalent homotrimer of the one chain given, not shown: Also the single Ser the vector leaves after the ompA signal) EPPTQKPKKIVNAKKDVVNTKMFEELKSRLDTLAQEVALLKEQQALQTVCLKGTKVHMKCFLAFTQTKTFHEASEDCISRGGTLSTPQTGSENDALYEYLRQSVGNEAEIWLGLNGSALTNTWVDMTGARIAYKNWETEITAQPDGGFGYFGENCAVLSGAANGKWFDKRCRDQLPYICQFGIV
0.000314

FYI, the data here is from patent US20110086806A1.
